TGT: MAPK1 (human) (UniProt P28482)
Sequence (P28482 whole entry, looked up): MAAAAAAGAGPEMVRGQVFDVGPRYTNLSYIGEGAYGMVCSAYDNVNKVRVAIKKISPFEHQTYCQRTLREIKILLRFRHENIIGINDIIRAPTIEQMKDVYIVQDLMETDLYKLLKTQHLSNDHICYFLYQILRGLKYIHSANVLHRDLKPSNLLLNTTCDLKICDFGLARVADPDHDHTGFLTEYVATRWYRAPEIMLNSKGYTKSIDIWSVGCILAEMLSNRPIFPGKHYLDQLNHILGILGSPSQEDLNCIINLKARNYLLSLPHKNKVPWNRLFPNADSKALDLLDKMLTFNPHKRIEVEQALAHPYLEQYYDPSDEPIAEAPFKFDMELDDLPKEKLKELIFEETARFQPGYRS
PROTOCOL_SUMMARY: KINOMEscan competition binding
CONDITION_INFO: compound 10.0 µM
READOUT_NAME: kinase still bound, per cent of control (%)
Record the value in %, omitting the unit from your answer.

Lab note: measured kinase still bound, per cent of control of CCN(CCO)CCCOc1ccc2c(Nc3cc(CC(=O)Nc4cccc(F)c4)[nH]n3)ncnc2c1 was 100

Lab note: measured kinase still bound, per cent of control of N#C/C(=C1/Nc2ccccc2S1)c1ccnc(NCCc2cccnc2)n1 was 84

Lab note: measured kinase still bound, per cent of control of COc1cc2ncnc(Nc3cccc(Cl)c3)c2cc1OC was 100

Lab note: measured kinase still bound, per cent of control of CCCS(=O)(=O)Nc1ccc(F)c(C(=O)c2c[nH]c3ncc(Cl)cc23)c1F was 100

Lab note: measured kinase still bound, per cent of control of N#Cc1cc(-c2ccnc(Nc3ccc(-n4cnc(-c5cccnc5)n4)cc3)n2)cc(N2CCOCC2)c1 was 100

Lab note: measured kinase still bound, per cent of control of CC(=O)c1c(C)c2cnc(Nc3ccc(N4CCNCC4)cn3)nc2n(C2CCCC2)c1=O was 73

Lab note: measured kinase still bound, per cent of control of Cc1cn(-c2cc(C(=O)Nc3ccc(C)c(NC(=O)c4ccno4)c3)cc(C(F)(F)F)c2)cn1 was 100

Lab note: measured kinase still bound, per cent of control of COc1ccc(N(C(=O)Oc2cc(C(=O)Nc3cccc(C(F)(F)F)c3)ccc2C)c2ccnc(Nc3ccc(N4CCN(C)CC4)cc3)n2)c(OC)c1 was 100

Lab note: measured kinase still bound, per cent of control of COc1cc(N2CCC(C(N)=O)CC2)ccc1Nc1nc(N)c(Cl)c(Nc2ccccc2S(=O)(=O)C(C)C)n1 was 26

Lab note: measured kinase still bound, per cent of control of O=c1[nH]c2ccccc2n1C1CCN(Cc2ccc(-c3nc4cc5[nH]cnc5cc4nc3-c3ccccc3)cc2)CC1 was 100
